Hello, the source for this data is ChEMBL document CHEMBL5365411, in case you need it.

experiment: Cytotoxicity against LPS-induced mouse BV-2 cells assessed as cell viability at 20 uM incubated for 24 hrs by MTT assay relative to control; assay type: toxicity, cell-based; conditions: LPS-induced BV-2 cells, read-out: Activity
Here, each record is paired with measured viability at 24 h, 20 µM data.
Give the number; % is assumed, so skip it.

Sample records with viability at 24 h, 20 µM:
COMPOUND: CN(C)c1ccc(N2C(=O)C(c3ccccc3)=C(c3ccccc3)C2=O)cc1
viability at 24 h, 20 µM, %: 98.9
//
COMPOUND: N#Cc1ccc(N2C(=O)C(c3ccccc3)=C(c3ccccc3)C2=O)cc1
viability at 24 h, 20 µM, %: 80
//
COMPOUND: COc1ccc(N2C(=O)C(c3ccccc3)=C(c3ccccc3)C2=O)cc1
viability at 24 h, 20 µM, %: 97.2
//
COMPOUND: O=C1C(c2ccccc2)=C(c2ccccc2)C(=O)N1c1ccc(Cl)cc1
viability at 24 h, 20 µM, %: 93.9
//
COMPOUND: O=C1C(c2ccccc2)=C(c2ccccc2)C(=O)N1CCc1ccccc1
viability at 24 h, 20 µM, %: 100

Task: Form field: reported viability at 24 h, 20 µM of "O=C1C(c2ccccc2)=C(c2ccccc2)C(=O)N1c1ccc(OC(F)(F)F)cc1"
Result: 94.5

Task: Form field: reported viability at 24 h, 20 µM of "O=C1C(c2ccccc2)=C(c2ccccc2)C(=O)N1c1ccc(F)cc1"
Result: 100

Task: Form field: reported viability at 24 h, 20 µM of "CN(C)c1ccccc1N1C(=O)C(c2ccccc2)=C(c2ccccc2)C1=O"
Result: 100

Task: Form field: reported viability at 24 h, 20 µM of "O=C1C(c2ccccc2)=C(c2ccccc2)C(=O)N1Cc1ccccc1"
Result: 100

Task: Form field: reported viability at 24 h, 20 µM of "Cc1ccc(N2C(=O)C(c3ccccc3)=C(c3ccccc3)C2=O)cc1"
Result: 97.8

Task: Form field: reported viability at 24 h, 20 µM of "O=C1C(c2ccccc2)=C(c2ccccc2)C(=O)N1c1ccc(I)cc1"
Result: 100

Task: Form field: reported viability at 24 h, 20 µM of "O=C1C(c2ccccc2)=C(c2ccccc2)C(=O)N1c1ccc(Br)cc1"
Result: 95.7

Task: Form field: reported viability at 24 h, 20 µM of "O=C1C(c2ccccc2)=C(c2ccccc2)C(=O)N1c1ccc([N+](=O)[O-])cc1"
Result: 99.4

Task: Form field: reported viability at 24 h, 20 µM of "O=C1C(c2ccccc2)=C(c2ccccc2)C(=O)N1c1ccc(N2CCCCC2)cc1"
Result: 87.4

Task: Form field: reported viability at 24 h, 20 µM of "CC(C)(C)OC(=O)Nc1ccc(N2C(=O)C(c3ccccc3)=C(c3ccccc3)C2=O)cc1"
Result: 97.1
